Reference source: the supplement of paper PMC6522484

Tested on: SW480
Test: cell viability (CellTiter-Glo) relative to plate median (fraction of plate median); higher = more viable cells
Conditions: 5 µM; treatment time 24 h; reporter: 7TFP
measuredQuantity: cell viability
Note: the reply should be a number with no unit written.

[
  {
    "compound": "NCCCCCC(=O)O",
    "system": "SW480",
    "cell viability": 0.972
  },
  {
    "compound": "CC1=CC(=O)[C@H]2C(C)(C)CCC[C@]2(C)[C@@]1(O)CCc1ccoc1",
    "system": "SW480",
    "cell viability": 0.998
  },
  {
    "compound": "CC(C)=CC1C(CO)C1(C)C (centres undefined)",
    "system": "SW480",
    "cell viability": 1.02
  }
]

Please turn your attention to the following entry.
Consider Oc1c(Cl)cc(Cl)c(Cl)c1Cc1c(O)c(Cl)cc(Cl)c1Cl . Its measured cell viability is 1.02

====

System: SW480
Experiment: TCF/Wnt firefly luciferase reporter signal relative to plate median (fraction of plate median); higher = higher Wnt reporter signal
Details: 5 µM; treatment time 24 h; reporter: 7TFP
Below, each entry is listed with its recorded TCF/Wnt firefly luciferase reporter signal.
Note: the reply should be a number with no unit written.

[
  {
    "compound": "Oc1c(Br)cc(Br)c2cccnc12",
    "reading": 1.12
  },
  {
    "compound": "Clc1ccc(CO/N=C(\\Cn2ccnc2)c2ccc(Cl)cc2Cl)c(Cl)c1",
    "reading": 0.823
  },
  {
    "compound": "CC(C)=CCC[C@](C)(O)C1CC=C(C)CC1 (some centres not stated)",
    "reading": 0.996
  },
  {
    "compound": "CC(=O)O[C@@H]1CC[C@@]2(C)C(C[C@@H](OC(C)=O)[C@@]3(C)C4=CC(=O)O[C@@H](c5ccoc5)[C@]4(C)CCC23)C1(C)C (stereo partly drawn) [3alpha-ACETOXYDIHYDRODEOXYGEDUNIN]",
    "reading": 1.11
  }
]

Consider COc1ccc(-c2oc3cc(OC)c(OC)c(OC)c3c(=O)c2OC)cc1OC . Its measured TCF/Wnt firefly luciferase reporter signal is 1.06

Consider CC(=O)N(O)CCCCCNC(=O)CCC(=O)N(O)CCCCCNC(=O)CCC(=O)N(O)CCCCCN . Its measured TCF/Wnt firefly luciferase reporter signal is 1.06

Consider CC/C(=C(\c1ccccc1)c1ccc(OCCN(C)C)cc1)c1ccccc1 . Its measured TCF/Wnt firefly luciferase reporter signal is 0.859

====

Test system: SW480
Experiment: TCF/Wnt firefly luciferase reporter signal relative to plate median (fraction of plate median); higher = higher Wnt reporter signal
Details: 5 µM; treatment time 24 h; reporter: 7TFP
measuredQuantity: TCF/Wnt firefly luciferase reporter signal

// known answers, use as guide
[
  {
    "molecule": "COC(=O)N/N=C/c1c[n+]([O-])c2ccccc2[n+]1[O-]",
    "reading": 0.924
  },
  {
    "molecule": "CN(C)C(=N)NC(=N)N",
    "reading": 1
  },
  {
    "molecule": "O=C1C(CC[S+]([O-])c2ccccc2)C(=O)N(c2ccccc2)N1c1ccccc1 (centres undefined)",
    "reading": 0.885
  },
  {
    "molecule": "C[C@](N)(Cc1ccc(O)cc1)C(=O)O [alpha-METHYL-L-TYROSINE]",
    "reading": 0.974
  },
  {
    "molecule": "CO[C@@]1(NC(=O)CSCC#N)C(=O)N2C(C(=O)O)=C(CSc3nnnn3C)CS[C@@H]21",
    "reading": 1.02
  }
]

Please turn your attention to the following entry.
Consider COC1=CC(=O)C(O)=C/C1=C\C=C\c1ccccc1 . Its measured TCF/Wnt firefly luciferase reporter signal is 0.905

====

Below, each entry is listed with its recorded TCF/Wnt firefly luciferase reporter signal.
Tested on: DLD1
Assay: TCF/Wnt firefly luciferase reporter signal relative to plate median (fraction of plate median); higher = higher Wnt reporter signal
Details: 5 µM; treatment time 24 h; reporter: 7TFP
Note: the reply should be a number with no unit written.

// known answers, use as guide
[
  {
    "compound": "CC(C(=O)O)c1ccc(C(=O)c2cccs2)cc1 (centres undefined)",
    "system": "DLD1",
    "reading": 0.996
  },
  {
    "compound": "COc1cc2ccc(=O)oc2c(OC)c1OC",
    "system": "DLD1",
    "reading": 0.993
  },
  {
    "compound": "S=c1[nH]cnc2nc[nH]c12",
    "system": "DLD1",
    "reading": 1.22
  },
  {
    "compound": "CN(C(=O)CN(CCO)CC(=O)N(C)C(C)(C)Cc1ccccc1)C(C)(C)Cc1ccccc1",
    "system": "DLD1",
    "reading": 1.15
  },
  {
    "compound": "Nc1cc(C(Cl)=C(Cl)Cl)c(S(N)(=O)=O)cc1S(N)(=O)=O",
    "system": "DLD1",
    "reading": 1.17
  }
]

Consider CCCCC[C@H](CC(=O)NO)C(=O)N[C@H](C(=O)N1CCC[C@H]1CO)C(C)C . Its measured TCF/Wnt firefly luciferase reporter signal is 1

Consider COc1ccc2cc3[n+](cc2c1OC)CCc1cc2c(cc1-3)OCO2 . Its measured TCF/Wnt firefly luciferase reporter signal is 1.1

Consider OCc1c[nH]c2ccccc12 . Its measured TCF/Wnt firefly luciferase reporter signal is 1.06

Consider O=C(O)C(S)C(S)C(=O)O (centres undefined) . Its measured TCF/Wnt firefly luciferase reporter signal is 0.904

Consider C=C(C)[C@@H]1CC[C@]2(CO)CC[C@]3(C)[C@H](CC[C@@H]4[C@@]5(C)CC[C@H](O)C(C)(C)[C@@H]5CC[C@]43C)[C@@H]12 . Its measured TCF/Wnt firefly luciferase reporter signal is 1.14

Consider CC(=O)O[C@@H]1C[C@H]2C(C)(C)[C@H](O)C[C@H](O)[C@]2(C)[C@H]2CC[C@@]3(C)[C@H](c4ccoc4)OC(=O)[C@H]4O[C@]43[C@@]21C . Its measured TCF/Wnt firefly luciferase reporter signal is 1

Consider COc1ccccc1OCC(O)CO (centres undefined) . Its measured TCF/Wnt firefly luciferase reporter signal is 1.09

Consider NC(C(=O)O)C(O)C(=O)O (stereo not drawn) [d,l-threo-3-HYDROXYASPARTIC ACID] . Its measured TCF/Wnt firefly luciferase reporter signal is 1.14

Consider Oc1c(I)cc(I)c2cccnc12 . Its measured TCF/Wnt firefly luciferase reporter signal is 0.928

Consider C[C@]12CCC(=O)C=C1CC[C@@H]1[C@@H]2C(=O)C[C@@]2(C)[C@H]1CC[C@]2(O)C(=O)CO . Its measured TCF/Wnt firefly luciferase reporter signal is 0.914

Consider CC(C)(C(=O)O)c1ccc(C(O)CCCN2CCC(C(O)(c3ccccc3)c3ccccc3)CC2)cc1 (centres undefined) . Its measured TCF/Wnt firefly luciferase reporter signal is 1.05

Consider COc1cc2nc(N(C)CCCNC(=O)C3CCCO3)nc(N)c2cc1OC (centres undefined) . Its measured TCF/Wnt firefly luciferase reporter signal is 0.972

Consider CC(=O)O[C@H]1CC[C@]2(C)[C@H]3C(=O)C=C4[C@@H]5[C@@H](C)[C@H](C)CC[C@]5(C(=O)O)CC[C@@]4(C)[C@]3(C)CC[C@H]2C1(C)C . Its measured TCF/Wnt firefly luciferase reporter signal is 1

Consider O=C(/C=C/c1ccc(O)c(O)c1)O[C@@H]1C[C@](O)(C(=O)O)C[C@@H](O)[C@H]1O . Its measured TCF/Wnt firefly luciferase reporter signal is 0.931

====

Tested on: SW480
Test: cell viability (CellTiter-Glo) relative to plate median (fraction of plate median); higher = more viable cells
Details: 5 µM; treatment time 24 h; reporter: 7TFP
measuredQuantity: cell viability

// known answers, use as guide
[
  {
    "smiles": "COc1ccc2oc3ccccc3c(=O)c2c1",
    "measuredQuantity": "cell viability",
    "reading": 1.09
  },
  {
    "smiles": "COc1cc(CO)cc2c1C(=O)c1c(O)cc(O)cc1C2=O",
    "measuredQuantity": "cell viability",
    "reading": 0.99
  },
  {
    "smiles": "CN(C)CCc1c[nH]c2ccc(Cn3cncn3)cc12",
    "measuredQuantity": "cell viability",
    "reading": 1.03
  }
]

Please turn your attention to the following entry.
Reported cell viability (SW480) for entry CN[C@H]1CC[C@@H](c2ccc(Cl)c(Cl)c2)c2ccccc21 is 0.934

====

Test system: DLD1
Assay: TCF/Wnt firefly luciferase reporter signal relative to plate median (fraction of plate median); higher = higher Wnt reporter signal
Conditions: 10 µM; treatment time 24 h; reporter: 7TFP
Counter-ions that a name gives are not always drawn.
Threshold check on TCF/Wnt firefly luciferase reporter signal: at or above 1 gives Satisfied, strictly below gives Not satisfied.

[
  {
    "compound": "CC(C)(O)CC(=O)NCCn1ccc2ncnc(Nc3ccc(Oc4cccc(C(F)(F)F)c4)c(Cl)c3)c21",
    "classification": "Satisfied"
  },
  {
    "compound": "Cc1nc(N)sc1-c1ccnc(Nc2ccc(N3CCOCC3)cc2)n1",
    "classification": "Satisfied"
  },
  {
    "compound": "O=C(O)c1ccc2c(c1)nc(Nc1cccc(Cl)c1)c1ccncc12 [cx-4945 (Silmitasertib)]",
    "classification": "Not satisfied"
  },
  {
    "compound": "Cc1c(NC(=O)OC[C@@H]2COCCN2)cn2ncnc(Nc3ccc4c(cnn4Cc4cccc(F)c4)c3)c12",
    "classification": "Satisfied"
  },
  {
    "compound": "Nc1nc(N)c2nc(-c3cccc(O)c3)cnc2n1",
    "classification": "Satisfied"
  },
  {
    "compound": "c1cncc(CN2CCC(n3ncc4c(N5CCOCC5)nc(-c5ccc6[nH]ccc6c5)nc43)CC2)c1",
    "classification": "Not satisfied"
  },
  {
    "compound": "CCn1c(-c2nonc2N)nc2c(C#CC(C)(C)O)ncc(OC[C@H]3CCCNC3)c21",
    "classification": "Satisfied"
  },
  {
    "compound": "Cc1cnc(Nc2ccc(N3CCN(C)CC3)cc2)nc1Nc1cccc(S(=O)(=O)NC(C)(C)C)c1",
    "classification": "Satisfied"
  },
  {
    "compound": "Cc1nc(NC(=O)N2CCC[C@H]2C(N)=O)sc1-c1ccnc(C(C)(C)C(F)(F)F)c1",
    "classification": "Not satisfied"
  },
  {
    "compound": "CN(C)CCOc1ccc(-c2nc(-c3ccncc3)c(-c3ccc4c(c3)CC/C4=N\\O)[nH]2)cc1",
    "classification": "Satisfied"
  }
]

Item Cc1ccc(Nc2nccc(N(C)c3ccc4c(C)n(C)nc4c3)n2)cc1S(N)(=O)=O [Pazopanib HCl] with TCF/Wnt firefly luciferase reporter signal of 1 or above?
Satisfied

Item COc1ccc2c(OCc3nnc4ccc(-c5ccccc5)nn34)ccnc2c1 with TCF/Wnt firefly luciferase reporter signal of 1 or above?
Satisfied

Item O=c1c(O)c(-c2ccc(O)c(O)c2)oc2cc(O)cc(O)c12 [Quercetin (Sophoretin)] with TCF/Wnt firefly luciferase reporter signal of 1 or above?
Satisfied

Item COc1cc(Nc2ncc(F)c(Nc3ccc4c(n3)N(COP(=O)(O)O)C(=O)C(C)(C)O4)n2)cc(OC)c1OC with TCF/Wnt firefly luciferase reporter signal of 1 or above?
Not satisfied

Item Cc1cc(C(=O)NOCCO)c(Nc2ccc(I)cc2F)n(C)c1=O with TCF/Wnt firefly luciferase reporter signal of 1 or above?
Satisfied

Item O=c1sn(-c2cccc3ccccc23)c(=O)n1Cc1ccccc1 [Tideglusib] with TCF/Wnt firefly luciferase reporter signal of 1 or above?
Satisfied

Item C[C@]1(O)C[C@@H](c2nc(-c3ccc4ccc(-c5ccccc5)nc4c3)c3c(N)nccn32)C1 [Linsitinib (OSI-906)] with TCF/Wnt firefly luciferase reporter signal of 1 or above?
Satisfied

Item NC1(Cc2ccc(Cl)cc2)CCN(c2ncnc3[nH]ccc23)CC1 with TCF/Wnt firefly luciferase reporter signal of 1 or above?
Satisfied
